# MEASUREMENT TARGET: UniProt P00519
# Sequence (P00519 whole entry): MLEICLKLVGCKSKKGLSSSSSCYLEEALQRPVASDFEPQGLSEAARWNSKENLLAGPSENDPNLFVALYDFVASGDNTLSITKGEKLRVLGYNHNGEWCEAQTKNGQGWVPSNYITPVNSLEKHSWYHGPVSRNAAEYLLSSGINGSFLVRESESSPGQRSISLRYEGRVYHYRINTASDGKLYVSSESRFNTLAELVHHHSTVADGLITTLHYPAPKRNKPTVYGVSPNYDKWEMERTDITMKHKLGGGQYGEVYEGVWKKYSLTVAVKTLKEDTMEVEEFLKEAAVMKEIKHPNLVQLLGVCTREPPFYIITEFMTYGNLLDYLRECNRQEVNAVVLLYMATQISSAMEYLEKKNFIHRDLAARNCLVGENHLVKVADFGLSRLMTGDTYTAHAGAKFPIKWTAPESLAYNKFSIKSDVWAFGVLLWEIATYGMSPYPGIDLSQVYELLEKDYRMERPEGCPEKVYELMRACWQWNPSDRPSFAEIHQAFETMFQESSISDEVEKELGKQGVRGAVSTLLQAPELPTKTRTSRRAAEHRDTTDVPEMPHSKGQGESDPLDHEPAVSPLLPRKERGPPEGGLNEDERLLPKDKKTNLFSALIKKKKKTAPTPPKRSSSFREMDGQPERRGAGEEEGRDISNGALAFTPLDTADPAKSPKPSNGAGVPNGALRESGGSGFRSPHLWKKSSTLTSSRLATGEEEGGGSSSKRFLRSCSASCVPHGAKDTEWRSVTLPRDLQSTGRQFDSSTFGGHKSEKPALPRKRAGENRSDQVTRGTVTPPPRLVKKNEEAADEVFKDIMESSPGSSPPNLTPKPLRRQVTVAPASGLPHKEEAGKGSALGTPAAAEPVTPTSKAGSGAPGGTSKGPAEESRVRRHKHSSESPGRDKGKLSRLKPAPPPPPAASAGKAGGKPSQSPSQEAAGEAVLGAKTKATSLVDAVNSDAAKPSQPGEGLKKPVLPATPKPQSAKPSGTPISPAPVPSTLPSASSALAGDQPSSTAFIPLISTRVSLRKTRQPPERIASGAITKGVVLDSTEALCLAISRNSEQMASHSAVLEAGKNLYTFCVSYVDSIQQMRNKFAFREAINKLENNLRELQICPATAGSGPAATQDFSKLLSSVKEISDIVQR
# MEASUREMENT DESCRIPTION: KdELECT assay (DiscoverX), dissociation constants with Abl1 kinase
# CONDITION DETAILS: Dissociation constant (Kd) of complexes formed with Abl1 kinase, non-phosphorylated Abl1 kinase; calculated from quadruplicates; mean ± SD
Collected Kd values appear next to each entry.
Report the figure along with its unit, number first.

Some compounds with known Kd results, for comparison:
# COMPOUND, MEASUREMENT TARGET, Kd
rows = [
    ("Cc1cn(-c2cc(C(F)(F)F)cc(NC(=O)c3ccc(C)c(Nc4nccc(-c5cccnc5)n4)c3)c2S)cn1 [Nilotinib-SH (1a)]", "UniProt P00519", "881 nM"),
    ("Cc1ccc(-c2nc3cc(C(F)(F)F)c(CN4CCN(C)CC4)cc3s2)cc1C#Cc1cnc2cccnn12 [Ponatinib-BT (2b)]", "UniProt P00519", "8.4 nM"),
    ("Cc1ccc(C(=O)Nc2ccc(CN3CCN(C)CC3)c(C(F)(F)F)c2)cc1C#Cc1cnc2[nH]ncc2c1 [GZD824 (3), GZD824, reference compound]", "UniProt P00519", "0.6 nM"),
    ("Cc1ccc(C(=O)Nc2cc(C(F)(F)F)c(CN3CCN(C)CC3)cc2S)cc1C#Cc1cnc2cccnn12 [Ponatinib-SH (2a)]", "UniProt P00519", "0.6 nM"),
]

Okay, next one:
For Cc1ccc(C(=O)Nc2cc(C(F)(F)F)c(CN3CCN(C)CC3)cc2S)cc1C#Cc1cnc2[nH]ncc2c1 [GZD824-SH (3a)] the compound record lists Kd as 0.9 nM

The measurements presented in this section are drawn from paper PMC8528049.
